Assay: Oral pharmacokinetic study in normal rats
Type: in vivo, rat
Settings: rat, serum, po, 50 mg/kg
metric: Tmax (min)
# number only, unit min dropped from output

# input Kindly indicate its recorded Tmax. Item: O=C(O)c1cc(O)c(O)c(O)c1 [GA, 3,4,5-trihydroxy benzoic acid]
# output 27.6

---

Assay: Oral pharmacokinetic study in HCC-induced rats
Type: in vivo, rat
Settings: rat, serum, po, 50 mg/kg
metric: MRT (h)
# number only, unit h dropped from output

# input Kindly indicate its recorded MRT. Item: O=C(O)c1cc(O)c(O)c(O)c1 [GA, 3,4,5-trihydroxy benzoic acid]
# output 1.43

---

Assay: Oral pharmacokinetic study in HCC-induced rats
Format: in vivo, rat
Settings: rat, serum, po, 50 mg/kg
metric: AUC(0-t) (ng·h/mL)
# number only, unit ng·h/mL dropped from output

# input Kindly indicate its recorded AUC(0-t). Item: O=C(O)c1cc(O)c(O)c(O)c1 [GA, 3,4,5-trihydroxy benzoic acid]
# output 1340

---

Assay: Oral pharmacokinetic study in normal rats
Format: in vivo, rat
Conditions: rat, serum, po, 50 mg/kg
metric: AUC(0-t) (ng·h/mL)
# number only, unit ng·h/mL dropped from output

# input Kindly indicate its recorded AUC(0-t). Item: O=C(O)c1cc(O)c(O)c(O)c1 [GA, 3,4,5-trihydroxy benzoic acid]
# output 1640

---

Test: Oral pharmacokinetic study in HCC-induced rats
Format: in vivo, rat
Details: rat, serum, po, 50 mg/kg
metric: AUC(0-inf) (ng·h/mL)
# number only, unit ng·h/mL dropped from output

# input Kindly indicate its recorded AUC(0-inf). Item: O=C(O)c1cc(O)c(O)c(O)c1 [GA, 3,4,5-trihydroxy benzoic acid]
# output 1670

---

Assay: Oral pharmacokinetic study in HCC-induced rats
Format: in vivo, rat
Conditions: rat, serum, po, 50 mg/kg
metric: half-life (min)
# number only, unit min dropped from output

# input Kindly indicate its recorded half-life. Item: O=C(O)c1cc(O)c(O)c(O)c1 [GA, 3,4,5-trihydroxy benzoic acid]
# output 84

---

Assay: Oral pharmacokinetic study in normal rats
Type: in vivo, rat
Conditions: rat, serum, po, 50 mg/kg, MRT, normal rats, single dose 50 mg/kg p.o.
metric: MRT (h)
# number only, unit h dropped from output

# input Kindly indicate its recorded MRT. Item: O=C(O)c1cc(O)c(O)c(O)c1 [GA, 3,4,5-trihydroxy benzoic acid]
# output 1.06

---

Test: Oral pharmacokinetic study in normal rats
Type: in vivo, rat
Details: rat, serum, po, 50 mg/kg
metric: AUC(0-inf) (ng·h/mL)
# number only, unit ng·h/mL dropped from output

# input Kindly indicate its recorded AUC(0-inf). Item: O=C(O)c1cc(O)c(O)c(O)c1 [GA, 3,4,5-trihydroxy benzoic acid]
# output 1890

---

Test: Oral pharmacokinetic study in normal rats
Format: in vivo, rat
Conditions: rat, serum, po, 50 mg/kg
metric: half-life (min)
# number only, unit min dropped from output

# input Kindly indicate its recorded half-life. Item: O=C(O)c1cc(O)c(O)c(O)c1 [GA, 3,4,5-trihydroxy benzoic acid]
# output 37.2
